As shown below, each of these compounds has a reported concentration at 2 h value.
# ASSAY: Pharmacokinetic analyses in mouse
# Type: in vivo
# CONDITION_SET: mouse, plasma, po, 30 mg/kg, mouse, 30 mg/kg p.o., 2 h, individual animals; read-out: Plasma concentration
State just the number; it will be interpreted in nM.

// lookup concentration at 2 h for Cc1ncsc1-c1ccc(C(CCC(C)CCN2CCC(c3ccc4c(c3)n(C3CCCC3)c3nc(=O)c5c(Br)cccc5n43)CC2)NC(=O)C2CC(O)CN2C(=O)C(NC(=O)C2(F)CC2)C(C)(C)C)cc1 (centres unmarked)
4290

Next:
// lookup concentration at 2 h for Cc1ncsc1-c1ccc([C@H](CCCCCN2CCC(c3ccc4c(c3)n(C3CCCC3)c3nc(=O)c5c(Br)cccc5n43)CC2)NC(=O)[C@@H]2C[C@@H](O)CN2C(=O)[C@@H](NC(=O)C2(F)CC2)C(C)(C)C)cc1
874

---

As shown below, each of these molecules has a reported cooperativity α (SMARCA2BD) value.
# Test system: VCB: PROTAC: SMARCA2^BD ternary complex
# ASSAY: TR-FRET ternary complex affinity and cooperativity, SMARCA2
# Type: binding, human
# CONDITION_SET: ratio TR-FRET EC50 / TR-FRET EC50 +VCB measured in the same run, SMARCA2BD
API note: the answer field is a bare number with no unit suffix.

Recorded cooperativity α (SMARCA2BD), per entry:
Form: Entry = O=c1nc2n(C3CCCC3)c3cc(C4CCNCC4)ccc3n2c2cccc(Br)c12 | System = VCB: PROTAC: SMARCA2^BD ternary complex | cooperativity α (SMARCA2BD) = ____
1.2

# repeat for Cc1ncsc1-c1ccc(CNC(=O)[C@@H]2C[C@@H](O)CN2C(=O)[C@@H](NC(=O)C2(F)CC2)C(C)(C)C)c(OCCOCCOCCOCCN2CCC(c3ccc4c(c3)n(C3CCCC3)c3nc(=O)c5c(Br)cccc5n43)CC2)c1
2.8

# repeat for Cc1ncsc1-c1ccc([C@H](CC[C@H](C)CCN2CCC(c3ccc4c(c3)n(C3CCCC3)c3nc(=O)c5c(Br)cccc5n43)CC2)NC(=O)[C@@H]2C[C@H](O)CN2C(=O)[C@@H](NC(=O)C2(F)CC2)C(C)(C)C)cc1
1.1

# repeat for Cc1ncsc1-c1ccc([C@H](CCCCCN2CCC(c3ccc4c(c3)n(C3CCCC3)c3nc(=O)c5c(Br)cccc5n43)CC2)NC(=O)[C@@H]2C[C@@H](O)CN2C(=O)[C@@H](NC(=O)C2(F)CC2)C(C)(C)C)cc1
5.3

# repeat for Cc1ncsc1-c1ccc([C@H](COCCCN2CCC(c3ccc4c(c3)n(C3CCCC3)c3nc(=O)c5c(Br)cccc5n43)CC2)NC(=O)[C@@H]2C[C@@H](O)CN2C(=O)[C@@H](NC(=O)C2(F)CC2)C(C)(C)C)cc1
3.3

Now for a further molecule.
Form: Entry = Cc1ncsc1-c1ccc([C@H](COCCN2CCC(c3ccc4c(c3)n(C3CCCC3)c3nc(=O)c5c(Br)cccc5n43)CC2)NC(=O)[C@@H]2C[C@@H](O)CN2C(=O)[C@@H](NC(=O)C2(N(C)C)CC2)C(C)(C)C)cc1 | System = VCB: PROTAC: SMARCA2^BD ternary complex | cooperativity α (SMARCA2BD) = ____
5.8

---

# TESTED_TARGET: SMARCA4^BD (Homo sapiens)
# Construct: P51532, residues 1448–1569 with additional N-terminal SM residues; GST (TEV site) (N, cleaved yes); made in house; host or cells: Escherichia coli BL21(DE3); construct from SGC Toronto
# Sequence (P51532 1448-1569): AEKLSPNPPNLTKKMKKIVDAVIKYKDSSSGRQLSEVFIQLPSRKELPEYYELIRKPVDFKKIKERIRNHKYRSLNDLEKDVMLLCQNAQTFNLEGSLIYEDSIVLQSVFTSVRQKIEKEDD
# ASSAY: SPR binding to immobilised SMARCA4 bromodomain
# CONDITION_SET: SMARCA4BD, mean ± SD
As shown below, each of these compounds has a reported pKd value.
// pKd: -log10(molar conc.)

// lookup pKd for Cc1ncsc1-c1ccc([C@H](CCCCN2CCC(c3ccc4c(c3)n(C3CCCC3)c3nc(=O)c5c(Br)cccc5n43)CC2)NC(=O)[C@@H]2C[C@@H](O)CN2C(=O)[C@@H](NC(=O)C2(F)CC2)C(C)(C)C)cc1
6.82

# repeat for Cc1ncsc1-c1ccc([C@H](CCC(C)(C)CCN2CCC(c3ccc4c(c3)n(C3CCCC3)c3nc(=O)c5c(Br)cccc5n43)CC2)NC(=O)[C@@H]2C[C@@H](O)CN2C(=O)[C@@H](NC(=O)C2(F)CC2)C(C)(C)C)cc1
6.24

---

As shown below, each of these compounds has a reported concentration at 2 h value.
# ASSAY: Pharmacokinetic analyses in mouse
# Assay type: in vivo
# CONDITION_SET: mouse, plasma, oral, 30 mg/kg, 30 mg/kg p.o.; time 2 h; individual animals; read-out: Concentration
State just the number; it will be interpreted in µM.

// lookup concentration at 2 h for Cc1ncsc1-c1ccc([C@H](CCCCCN2CCC(c3ccc4c(c3)n(C3CCCC3)c3nc(=O)c5c(Br)cccc5n43)CC2)NC(=O)[C@@H]2C[C@@H](O)CN2C(=O)[C@@H](NC(=O)C2(F)CC2)C(C)(C)C)cc1 [compound 11]
0.874

Now for a further compound.
// lookup concentration at 2 h for Cc1ncsc1-c1ccc(C(CCC(C)CCN2CCC(c3ccc4c(c3)n(C3CCCC3)c3nc(=O)c5c(Br)cccc5n43)CC2)NC(=O)C2CC(O)CN2C(=O)C(NC(=O)C2(F)CC2)C(C)(C)C)cc1 (centres unmarked) [ACBI2]
4.29

---

# TESTED_TARGET: PBRM1BD5 (Homo sapiens)
# Construct: GST (TEV site) (N); His6 (TEV site) (N, cleaved yes); made in house; host or cells: PBRM1^BD5: Escherichia coli BL21(DE3)
# Sequence (Q86U86 645-766): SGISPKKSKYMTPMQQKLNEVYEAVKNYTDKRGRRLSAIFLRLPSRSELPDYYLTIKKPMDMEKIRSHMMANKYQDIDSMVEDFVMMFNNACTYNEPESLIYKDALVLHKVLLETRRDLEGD
# ASSAY: TR-FRET ternary complex affinity and cooperativity, PBRM1
# Format: binding
# CONDITION_SET: TR-FRET competition for PBRM1BD5, without VCB; mean ± SD; read-out: TR-FRET PBRM1BD EC50
MEASURED_PARAMETER: log10 EC50 (log10 of the value in nM)
// units: nM (pre-log); metric: EC50; scale: log10

Recorded log10 EC50, per entry:
// lookup log10 EC50 for Nc1cccc2c1c(=O)nc1n(C3CCCC3)c3ccccc3n21
3.00

# repeat for Cc1ncsc1-c1ccc([C@H](COC(C)CN2CCC(c3ccc4c(c3)n(C3CCCC3)c3nc(=O)c5c(Br)cccc5n43)CC2)NC(=O)[C@@H]2C[C@@H](O)CN2C(=O)[C@@H](NC(=O)C2(F)CC2)C(C)(C)C)cc1 (stereo partly drawn)
1.53

# repeat for Cc1ncsc1-c1ccc([C@H](CCCCCN2CCC(c3ccc4c(c3)n(C3CCCC3)c3nc(=O)c5c(Br)cccc5n43)CC2)NC(=O)[C@@H]2C[C@@H](O)CN2C(=O)[C@@H](NC(=O)C2(F)CC2)C(C)(C)C)cc1
1.61

Next:
// lookup log10 EC50 for CN1CCC(c2ccc3c(c2)n(C2CCCC2)c2nc(=O)c4c(Br)cccc4n32)CC1
1.49

# repeat for Cc1ncsc1-c1ccc([C@H](CCC(C)(C)CCN2CCC(c3ccc4c(c3)n(C3CCCC3)c3nc(=O)c5c(Br)cccc5n43)CC2)NC(=O)[C@@H]2C[C@@H](O)CN2C(=O)[C@@H](NC(=O)C2(F)CC2)C(C)(C)C)cc1
2.12

# repeat for Cc1ncsc1-c1ccc(CNC(=O)[C@@H]2C[C@@H](O)CN2C(=O)[C@@H](NC(=O)C2(F)CC2)C(C)(C)C)c(OCCOCCOCCN2CCC(c3ccc4c(c3)n(C3CCCC3)c3nc(=O)c5c(Br)cccc5n43)CC2)c1
1.88

# repeat for O=c1nc2n(C3CCCC3)c3ccccc3n2c2cccc(Br)c12
2.13

# repeat for Cc1ncsc1-c1ccc([C@H](CC[C@@H](C)CCN2CCC(c3ccc4c(c3)n(C3CCCC3)c3nc(=O)c5c(Br)cccc5n43)CC2)NC(=O)[C@@H]2C[C@@H](O)CN2C(=O)[C@@H](NC(=O)C2(F)CC2)C(C)(C)C)cc1
1.93

---

# ASSAY: Cell viability assay (CellTiter Glo) in a panel of cell lines;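 further: percent of DMSO-treated control cells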
# Assay type: cell-based, human
# CONDITION_SET: human, OV-90 cells, OV-90; log10 conc -5.90309 mol/l
MEASURED_PARAMETER: viability at 1.25 µM (%)
State just the number; it will be interpreted in %.

// lookup viability at 1.25 µM for Cc1ncsc1-c1ccc(C(CCC(C)CCN2CCC(c3ccc4c(c3)n(C3CCCC3)c3nc(=O)c5c(Br)cccc5n43)CC2)NC(=O)C2CC(O)CN2C(=O)C(NC(=O)C2(F)CC2)C(C)(C)C)cc1 (stereo not shown)
35.5

---

As shown below, each of these molecules has a reported Dmax value.
# TESTED_TARGET: SMARCA2 (Homo sapiens, UniProt P51531)
# Sequence (P51531 whole entry): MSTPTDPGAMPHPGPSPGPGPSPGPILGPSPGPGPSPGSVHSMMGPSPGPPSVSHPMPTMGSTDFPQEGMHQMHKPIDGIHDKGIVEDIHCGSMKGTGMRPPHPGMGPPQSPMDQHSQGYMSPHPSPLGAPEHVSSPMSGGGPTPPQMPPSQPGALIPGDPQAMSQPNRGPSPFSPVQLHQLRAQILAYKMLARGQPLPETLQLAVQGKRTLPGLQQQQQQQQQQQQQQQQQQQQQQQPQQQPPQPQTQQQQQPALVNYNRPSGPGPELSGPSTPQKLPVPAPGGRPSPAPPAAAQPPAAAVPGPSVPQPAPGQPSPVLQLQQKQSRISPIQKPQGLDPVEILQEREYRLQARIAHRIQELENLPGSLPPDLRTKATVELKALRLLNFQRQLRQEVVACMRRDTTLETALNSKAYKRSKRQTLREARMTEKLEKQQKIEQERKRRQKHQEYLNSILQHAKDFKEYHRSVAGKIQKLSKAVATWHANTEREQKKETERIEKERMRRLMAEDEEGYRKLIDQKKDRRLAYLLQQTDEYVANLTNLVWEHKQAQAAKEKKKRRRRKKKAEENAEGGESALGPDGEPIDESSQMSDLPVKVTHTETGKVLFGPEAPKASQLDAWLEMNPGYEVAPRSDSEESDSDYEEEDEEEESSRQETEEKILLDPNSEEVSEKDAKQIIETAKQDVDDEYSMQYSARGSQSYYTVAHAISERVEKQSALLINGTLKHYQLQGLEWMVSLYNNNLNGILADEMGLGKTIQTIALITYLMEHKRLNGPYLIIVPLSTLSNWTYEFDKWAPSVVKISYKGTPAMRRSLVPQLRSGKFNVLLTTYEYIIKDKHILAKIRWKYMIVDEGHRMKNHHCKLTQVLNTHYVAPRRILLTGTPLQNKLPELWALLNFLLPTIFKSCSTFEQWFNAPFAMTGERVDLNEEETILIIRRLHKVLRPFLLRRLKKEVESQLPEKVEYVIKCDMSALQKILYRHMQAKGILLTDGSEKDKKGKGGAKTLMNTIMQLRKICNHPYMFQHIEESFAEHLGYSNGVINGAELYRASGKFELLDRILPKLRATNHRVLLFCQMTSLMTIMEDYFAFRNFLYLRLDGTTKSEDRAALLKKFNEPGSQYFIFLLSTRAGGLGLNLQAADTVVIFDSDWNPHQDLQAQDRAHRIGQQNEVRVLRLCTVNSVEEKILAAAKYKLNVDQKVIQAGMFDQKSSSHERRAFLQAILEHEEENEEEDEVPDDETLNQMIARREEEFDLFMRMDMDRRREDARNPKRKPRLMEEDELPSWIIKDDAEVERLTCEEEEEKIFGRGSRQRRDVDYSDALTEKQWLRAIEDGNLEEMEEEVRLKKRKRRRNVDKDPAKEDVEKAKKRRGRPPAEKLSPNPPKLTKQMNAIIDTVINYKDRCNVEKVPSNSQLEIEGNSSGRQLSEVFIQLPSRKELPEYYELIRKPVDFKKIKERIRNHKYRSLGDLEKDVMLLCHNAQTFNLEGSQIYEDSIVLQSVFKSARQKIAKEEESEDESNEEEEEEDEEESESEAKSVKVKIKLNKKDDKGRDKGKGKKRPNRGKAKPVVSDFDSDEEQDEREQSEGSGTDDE
# ASSAY: SMARCA2 capillary electrophoresis protein assay in RKO cells
# Type: cell-based
# Set-up: endogenous in cells; host or cells: RKO, NCI-H1568, A549, HCT116, LU99, HCC-364, HCT-15, HCC4006, SK-N-AS
# CONDITION_SET: RKO, RKO (18 h); mean ± SD
State just the number; it will be interpreted in %.

Recorded Dmax, per entry:
Form: Entry = Cc1ncsc1-c1ccc([C@H](COC(C)CN2CCC(c3ccc4c(c3)n(C3CCCC3)c3nc(=O)c5c(Br)cccc5n43)CC2)NC(=O)[C@@H]2C[C@@H](O)CN2C(=O)[C@@H](NC(=O)C2(F)CC2)C(C)(C)C)cc1 (stereo partly drawn) | System = SMARCA2 (Homo sapiens, UniProt P51531) | Dmax = ____
76

# repeat for Cc1ncsc1-c1ccc([C@H](COCCN2CCC(c3ccc4c(c3)n(C3CCCC3)c3nc(=O)c5c(Br)cccc5n43)CC2)NC(=O)[C@@H]2C[C@@H](O)CN2C(=O)[C@@H](NC(=O)C2(N(C)C)CC2)C(C)(C)C)cc1
82

# repeat for Cc1ncsc1-c1ccc(C(CCC(C)CCN2CCC(c3ccc4c(c3)n(C3CCCC3)c3nc(=O)c5c(Br)cccc5n43)CC2)NC(=O)C2CC(O)CN2C(=O)C(NC(=O)C2(F)CC2)C(C)(C)C)cc1 (stereo not drawn)
81

# repeat for Cc1ncsc1-c1ccc([C@H](COC(C)CN2CCC(c3ccc4c(c3)n(C3CCCC3)c3nc(=O)c5c(Br)cccc5n43)CC2)NC(=O)[C@@H]2C[C@@H](O)CN2C(=O)[C@@H](NC(=O)C2(N(C)C)CC2)C(C)(C)C)cc1 (stereo partly drawn)
82

# repeat for Cc1ncsc1-c1ccc([C@H](CC[C@H](C)CCN2CCC(c3ccc4c(c3)n(C3CCCC3)c3nc(=O)c5c(Br)cccc5n43)CC2)NC(=O)[C@@H]2C[C@H](O)CN2C(=O)[C@@H](NC(=O)C2(F)CC2)C(C)(C)C)cc1
82

Now for a further molecule.
Form: Entry = Cc1ncsc1-c1ccc([C@H](CCCCCN2CCC(c3ccc4c(c3)n(C3CCCC3)c3nc(=O)c5c(Br)cccc5n43)CC2)NC(=O)[C@@H]2C[C@@H](O)CN2C(=O)[C@@H](NC(=O)C2(F)CC2)C(C)(C)C)cc1 | System = SMARCA2 (Homo sapiens, UniProt P51531) | Dmax = ____
87
